reported.metric: Ki

Problem: Give the reported Ki for O=C(O)c1ccc(C[C@H]2CC[C@H]3CN[C@H](C(=O)O)C[C@H]3C2)cc1 [LY 382884] (system: Glutamate receptor ionotropic, kainate 3 (Homo sapiens)).
Sequence (Q13003 whole entry): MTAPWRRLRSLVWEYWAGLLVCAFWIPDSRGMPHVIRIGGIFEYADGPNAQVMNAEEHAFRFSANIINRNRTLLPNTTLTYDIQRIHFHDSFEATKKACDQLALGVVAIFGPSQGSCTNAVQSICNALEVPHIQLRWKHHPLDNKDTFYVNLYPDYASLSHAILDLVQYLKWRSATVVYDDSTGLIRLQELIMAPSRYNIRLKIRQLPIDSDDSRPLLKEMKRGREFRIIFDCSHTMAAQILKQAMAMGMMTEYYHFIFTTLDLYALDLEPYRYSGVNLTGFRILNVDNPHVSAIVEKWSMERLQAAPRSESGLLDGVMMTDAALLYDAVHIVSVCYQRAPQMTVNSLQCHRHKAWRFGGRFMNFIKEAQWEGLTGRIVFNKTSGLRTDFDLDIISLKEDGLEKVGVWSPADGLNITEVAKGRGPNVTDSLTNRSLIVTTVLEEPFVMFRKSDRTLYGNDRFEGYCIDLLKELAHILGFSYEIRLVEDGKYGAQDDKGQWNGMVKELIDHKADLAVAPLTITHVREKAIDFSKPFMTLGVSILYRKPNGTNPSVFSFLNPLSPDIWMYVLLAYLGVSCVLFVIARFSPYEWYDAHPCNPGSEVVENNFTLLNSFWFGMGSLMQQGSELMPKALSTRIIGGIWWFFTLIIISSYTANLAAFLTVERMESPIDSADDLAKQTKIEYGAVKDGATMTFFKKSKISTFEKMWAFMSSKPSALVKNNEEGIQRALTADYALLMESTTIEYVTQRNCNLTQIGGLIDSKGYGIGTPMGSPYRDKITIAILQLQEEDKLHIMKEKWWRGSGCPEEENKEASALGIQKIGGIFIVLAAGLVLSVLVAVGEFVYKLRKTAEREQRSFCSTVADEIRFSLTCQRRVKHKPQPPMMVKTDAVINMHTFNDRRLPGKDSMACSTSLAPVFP
Solution: > 10 µM

----------
reported.metric: Ki

Problem: Short answer please: Ki, Glutamate receptor 4 (Homo sapiens, UniProt P48058), entry O=C(O)c1ccc(C[C@H]2CC[C@H]3CN[C@H](C(=O)O)C[C@H]3C2)cc1 [LY 382884]
Solution: > 10 µM

----------
pKi: −log10 of the molar value.
reported.metric: pKi

Problem: Find the measured pKi: item O=C(O)C1CC(F)(F)CN1C[C@H]1CC[C@H]2CN[C@H](C(=O)O)C[C@H]2C1 (stereo partly specified) [LY-466195] , target or system Glutamate receptor 1 (Homo sapiens, UniProt P42261).
Solution: < 5.00
